The values you see were collected from PubChem BioAssay AID463173.

System: DeltatarO mutant
Experiment: S. aureus survival, RN4220 and DeltatarO strains – OD600, teichoic acid synthesis inhibitors, primary screen (AID 463173)
Settings: S. aureus RN4220 wild type/DeltatarO growth, OD600, 18 h, hits give low values, screened at 18.75 µg/mL (by protocol)
Screen size: about 52,000 compounds; about 4,300 (8.3%) were called active. The entries come from a sample that favours actives as a whole.
Item-by-item account of survival

molecule	survival
COc1ccccc1N1CCN(S(=O)(=O)c2c(C)sc3ncn(CC(=O)Nc4ccc(C)cc4Br)c(=O)c23)CC1	73% (inactive)
CCNS(=O)(=O)c1cccs1	96% (inactive)
Cc1ccc(Cl)cc1NC(=O)Cn1cc2c(n1)CCCCC2	68% (inactive)
Cc1ccc(Cl)cc1N1CCN(C(=O)c2c(C)oc3ncnc(N4CCCCC4)c23)CC1	-4% (active)
CCC(=O)Nc1ccc2nc(SCc3ccc(C)cc3)sc2c1	84% (inactive)
Cc1ccc(C)c(N2CCN(c3ncnc4onc(C)c34)CC2)c1	90% (inactive)
Cc1cc(C)c(/C=C/c2onc(C)c2S(=O)(=O)N2CCC(C(=O)NCCc3ccccc3)CC2)c(C)c1	94% (inactive)
Cc1ccc(Cl)cc1NC(=O)c1oc2ccc(S(=O)(=O)N3CCCCC3)cc2c1C	74% (inactive)
CC(C)n1c(C(=O)OC(C(=O)NCc2ccco2)c2cccnc2)cc2sccc21 (stereo unspecified)	88% (inactive)
Cc1cccc(NC(=O)CCn2cnnn2)c1	79% (inactive)
CCc1ccc(CN2CCc3nc(Nc4ccccc4)ncc3C2)cc1	84% (inactive)

* * *

Tested on: DeltatarO mutant
Assay: S. aureus survival, RN4220 and DeltatarO strains – OD600, teichoic acid synthesis inhibitors, primary screen (AID 463173)
Conditions: S. aureus RN4220 wild type/DeltatarO growth, OD600, 18 h, screened at 18.75 µg/mL (by protocol)
About 4,300 (8.3%) of roughly 52,000 compounds were called active. No stated cut-off is given here; in the data, active means survival mostly below about 52% (no sharp cut-off); inactive means mostly above about 56%. Shown is part of a subset that was picked to be rich in actives.
Labels: Yes = active, No = inactive

molecule_smiles	assayed_system	class
COC(=O)c1ccc2c(=O)n(CCCCCC(=O)NCCc3ccc(Cl)cc3)c(=O)[nH]c2c1	DeltatarO mutant	Yes
CSc1ccc(CCNC(=O)CCn2c(=O)c3cccn3c3cccnc32)cc1	DeltatarO mutant	No
O=C(CCCn1c(=O)c2cccn2c2cccnc21)NCCc1ccc(Cl)cc1	DeltatarO mutant	No
CSc1ccc(CCNC(=O)CCCn2c(=O)c3cccn3c3ccccc32)cc1	DeltatarO mutant	Yes
O=C(CCCn1c(=O)c2cccn2c2ccccc21)NCCc1ccc(Cl)cc1	DeltatarO mutant	Yes

* * *

Item-by-item account of survival
Test system: DeltatarO mutant
Experiment: S. aureus survival, RN4220 and DeltatarO strains – OD600, teichoic acid synthesis inhibitors, primary screen (AID 463173)
Conditions: S. aureus RN4220 wild type/DeltatarO growth, OD600, 18 h, hits give low values, screened at 18.75 µg/mL (by protocol)
Hit rate of the full screen: of about 52,000 compounds, about 4,300 (8.3%) were called active. The sample holds actives, similar compounds and a random draw of the others, so the mix is not that of the screen.

molecule	survival, %
Cc1ccccc1S(=O)(=O)Cc1ccc(C(=O)NCc2ccccc2Cl)o1	56
COc1ccc(Cn2ccnc2SCC(=O)Nc2nc3ccccc3s2)cc1	84
CCOc1ccc(C(c2c(O)cc(C)n(Cc3ccco3)c2=O)N2CCN(c3ccccc3)CC2)cc1 (stereo not given)	75
CCOC(=O)c1c(S(=O)(=O)N2CCCC(C(=O)NCc3ccccc3Cl)C2)c(C)n(C)c1C (stereo not given)	122
Cc1ccc(CN2CCSc3ccc(C(=O)Nc4ccc(C)cc4)cc32)cc1	105
